- experiment: qHTS assay to identify small molecule antagonists of the androgen receptor (AR) signaling pathway using the MDA cell line in the presence of 0.5 nM R1881 - cell viability counter screen (AID 1259242); also: nearly all actives have a fitted effect of over 45% in size
- measurement_setup: MDA-kb2 viability, CellTiter-Fluor protease fluorescence, 16 h; series mostly up to 92.4 µM
Results filed as inconclusive are left out. Activity calls are given as the source filed them. Calls follow the shape of the dose curve; as a rule, active = well fitted cell-killing curve with a large enough effect in the repeat runs; inconclusive = weak or mixed curves, or effect the other way; inactive = flat fitted curve, though single readings scatter.
Pick from 1 for active, -1 for inactive when you respond.

molecule	label
CC1CCCNC1 (stereo unspecified)	-1
CN(C)CCOC(c1ccccc1)c1ccccc1 (tested in a mixture with another compound)	-1
CCCCCCCCCC(=O)N(C)C	-1
CCCCCCCCCCc1ccccc1	-1
c1cc2c3c(c1)ccc1cccc(c13)C2	-1
CC(C)C(=O)OCc1ccccc1	-1

QUERY: Which result was noted for this molecule in the test: CO[Si](CCC1CCC2OC2C1)(OC)OC (stereo unspecified)
RESULT: -1

QUERY: Entry `CC1CCCCC1` please
RESULT: -1

QUERY: Subsequent entry: `C[Si](C)O[Si](C)C`
RESULT: -1

QUERY: What do we get for `CCCCCCOc1cc(C)c(O)c(C)c1C` ?
RESULT: -1

QUERY: Also `CC(C)(C)C1=CC(=O)C=C(C(C)(C)C)C1=O` ?
RESULT: -1

QUERY: Would you mind doing `CCCCCCCC(C)=O` as well?
RESULT: -1

QUERY: Now the molecule `O=C1c2c(O)ccc(O)c2C(=O)c2c(NCCNCCO)ccc(NCCNCCO)c21`
RESULT: 1

QUERY: Please do the same for `C[C@]12CC[C@H]3C(=CCc4cc(O)ccc43)[C@@H]1CCC2=O` as well.
RESULT: -1

###

- experiment: qHTS assay to identify small molecule antagonists of the vitamin D receptor (VDR) signaling pathway - cell viability counter screen (AID 743225); also: nearly all actives have a fitted effect of over 50% in size
- measurement_setup: VDR-bla HEK293T viability, CellTiter-Glo luminescence, 16 h; series mostly up to 61 µM
Results filed as inconclusive are left out. Activity calls are given as the source filed them. The call rests on the fitted dose curve; in most records, active means well fitted cell-killing curve with a large enough effect in the repeat runs; inconclusive means weak or mixed curves, or effect the other way; inactive means no such curve, though single readings can be large or run the other way.
Permitted responses: active, inactive

Previously resolved entries follow.
compound	label
CC=O	active
CC(COC(=O)c1ccccc1)OC(=O)c1ccccc1 (stereo not drawn)	inactive
CCCC(CC)CCCCCCCN (stereo not drawn)	inactive
Cc1occc1SSc1ccoc1C	inactive
COC(=O)CC#N	inactive

Shifting focus to the compound that follows.
QUERY: Outcome logged for `NCCCC(O)(P(=O)(O)O)P(=O)(O)O` in this assay:
RESULT: inactive

###

- experiment: qHTS assay to identify small molecule antagonists of the sonic hedgehog signaling (Shh) pathway - cell viability counter screen (AID 1259367); also: nearly all actives have a fitted effect of over 55% in size
- measurement_setup: NIH/3T3 Gli1-Luc viability, CellTiter-Fluor, 24 h; series mostly up to 92.4 µM
- Text: National Center for Advancing Translational Sciences [NCATS] NIH Chemical Genomics Center [NCGC] U.S. Environmental Protection Agency [EPA] National Institutes of Environmental Health Sciences [NIEHS] National Toxicology Program [NTP] U.S. Food and Drug Administration [FDA] The sonic hedgehog (Shh) pathway is essential for normal embryonic development. Dysregulation of the Shh pathway can cause severe developmental defects in organs. […]
Results filed as inconclusive are left out. Calls of active or inactive are those of the source. The call rests on the fitted dose curve; in most records, active means well fitted cell-killing curve with a large enough effect in the repeat runs; inconclusive means weak or mixed curves, or effect the other way; inactive means no such curve, though single readings can be large or run the other way.
Parameter call: string, one of active, inactive

C/C=C/c1ccc(OC)c(OC)c1 inactive
COc1nccnc1CC(C)C inactive
CO[C@H]1C=CO[C@@]2(C)Oc3c(C)c(O)c4c(O)c(cc(O)c4c3C2=O)NC(=O)/C(C)=C\C=C/[C@H](C)[C@H](O)[C@@H](C)[C@@H](O)[C@@H](C)[C@H](OC(C)=O)[C@@H]1C active
CC(C)c1ccccc1N inactive
CCc1c(C(=O)O)c(=O)cnn1-c1ccc(Cl)cc1 inactive

QUERY: Which outcome did this test record for the molecule `Cc1ccc2ccc3cccc4ccc1c2c34` ?
RESULT: inactive

QUERY: Ok, now `OCCN1CN(CCO)CN(CCO)C1`
RESULT: inactive
